# procedureText: Preliminary assessment of in vivo pharmacokinetics in rats
# cond: rat, plasma, po, 20 mg/kg, rats; intragastric 20 mg/kg; mean
readoutKind: half-life (h)
Form entry: value (h) — number only.

Fill in reported half-life for this entry: `CC(C)Oc1ccc(-c2nc(-c3ccc(CN4CC(C(=O)O)C4)c4ccccc34)no2)cc1C#N.Cl`
2.49

---

# procedureText: Preliminary assessment of pharmacokinetics in mice
# Assay type: in vivo, CD-1 mice
# cond: male, CD-1, mouse, plasma, po, 2 mg/kg, title: oral 2 mg/kg; 4.00 h; mean; read-out: Concentration of A1 Drug in Plasma of Mice
readoutKind: concentration at 4 h (ng/mL)
Enter your answer as a number in ng/mL; do not include the unit.

State its concentration at 4 h: `CC(C)Oc1ccc(-c2nc(-c3ccc(CN4CC(C(=O)O)C4)c4ccccc34)no2)cc1C#N.Cl`
8.43
